Hey, just so you know, these numbers are from PubChem BioAssay (NCI).

# Test system: MALME-3M melanoma
# ASSAY_OVERVIEW: NCI-60 one-dose screen, 48 h (100 = growth as untreated, 0 = no growth, -100 = all killed)
# TEST_SETTINGS: 10 µM unless noted
The panel holds about 83,000 compounds, 20% with a hit somewhere; the sample as a whole holds those more often.
Please assign NO whenever growth is at or above 70%, and YES whenever it is below.

Some solved cases for reference:
COMPOUND: COc1ccc(/C=C/C(=O)Nc2cc(/C=C\c3cc(OC)c(OC)c(OC)c3)cc(OC)c2OC)cc1OC
CATEGORY_LABEL: YES
--
COMPOUND: O=C1Nc2cc(-c3ccc(NC(=O)C4CC4)cc3)ccc2/C1=C/c1ccc[nH]1
CATEGORY_LABEL: NO
--
COMPOUND: O=C(c1nc2ccccc2[nH]1)C1C(c2ccc(Br)cc2)C2CC3CCCC[C@H]3N2[C@@]12C(=O)Nc1cc(Cl)ccc12 (some centres undefined)
CATEGORY_LABEL: YES
--
COMPOUND: N#CC1=C(N)Oc2c(cnn2-c2ccc([N+](=O)[O-])cc2[N+](=O)[O-])C1c1ccccc1 (centres undefined)
CATEGORY_LABEL: NO
--
COMPOUND: CC(C)=CCC[C@](C)(O)[C@H]1CC[C@]2(C)[C@@H]1CC[C@@H]1[C@@]3(C)C/C(=C/c4ccccc4)C(=O)C(C)(C)[C@@H]3CC[C@]12C
CATEGORY_LABEL: NO

Query string: Here's an entry: CC(=O)CCC(=O)OCc1cc(=O)c(O)co1 . Is its growth below 70%?
Result string: NO

Query string: For this compound, is growth lower than 70%? CCN1C(=O)N(CC)C2Nn3c(s/c(=C\c4ccc(OC)cc4)c3=O)=NC21 (centres undefined)
Result string: YES

Query string: Please indicate whether the reported growth of O=C1Nc2ccccc2/C1=C\c1c(-c2ccc(F)cc2)nc2ccccn12 is strictly below 70%.
Result string: NO

Query string: Is the reported growth for COc1cccc(-c2nc3occn3c2-c2ccnc(NCCNS(=O)(=O)c3cccc4ccccc34)n2)c1 strictly below 70%?
Result string: NO
